systemUnderTest: T1, Human CD19-his protein (human, UniProt P15391 20-291)
T1 construct: bought protein; also called recombinant human CD19-His; CD19 full-length protein; not shown: His tag
T1 sequence (looked up): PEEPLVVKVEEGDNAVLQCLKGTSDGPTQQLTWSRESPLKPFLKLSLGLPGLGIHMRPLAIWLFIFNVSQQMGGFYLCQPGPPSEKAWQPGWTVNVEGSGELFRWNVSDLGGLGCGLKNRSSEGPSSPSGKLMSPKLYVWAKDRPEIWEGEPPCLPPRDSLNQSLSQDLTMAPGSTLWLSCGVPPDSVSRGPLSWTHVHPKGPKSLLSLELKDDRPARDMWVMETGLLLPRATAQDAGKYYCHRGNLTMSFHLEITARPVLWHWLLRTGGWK
procedureSummary: SPR Biacore, Ab captured on Protein A, CD19-His analyte
propertyMeasured: kon (M⁻¹ s⁻¹)
Numeric answer only, unit M⁻¹ s⁻¹ assumed.

F4.22.6 (antibody, human IgG1, V domains shown, human-murine chimeric antibody, human IgG1 constant) VH: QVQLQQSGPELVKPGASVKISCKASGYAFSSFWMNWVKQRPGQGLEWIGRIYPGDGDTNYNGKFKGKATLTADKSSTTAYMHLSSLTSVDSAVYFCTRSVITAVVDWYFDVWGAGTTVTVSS VL: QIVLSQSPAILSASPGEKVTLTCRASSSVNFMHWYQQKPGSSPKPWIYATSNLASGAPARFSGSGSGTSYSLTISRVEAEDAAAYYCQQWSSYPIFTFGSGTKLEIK; 248000

Proceeding to the next binder to report its kon.
**Q:** Entry F3.3.10 (antibody, human IgG1, V domains shown, human-murine chimeric antibody, human IgG1 constant) VH: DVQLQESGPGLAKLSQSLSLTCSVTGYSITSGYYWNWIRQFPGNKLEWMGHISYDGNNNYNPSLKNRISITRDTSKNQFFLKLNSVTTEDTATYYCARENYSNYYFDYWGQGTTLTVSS VL: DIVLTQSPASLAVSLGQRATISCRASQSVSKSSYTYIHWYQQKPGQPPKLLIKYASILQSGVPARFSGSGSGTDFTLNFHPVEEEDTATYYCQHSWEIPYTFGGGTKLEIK has what kon?
**A:** 73400
